# System: HCT-116 colon
# assay_explanation: NCI-60 one-dose screen, 48 h
# condition_parameters: 10 µM
The panel holds about 83,000 compounds, 20% with a hit somewhere; the sample as a whole holds those more often. Calls of active or inactive are those of the source. How the source made its calls: active means growth percent below 10; inactive means the rest.
Log the outcome using a class from active, inactive

Consider the following illustrative entries.
INSERT INTO assay_data (molecule, classification) VALUES
  ('CCN(CC)CCSCCCNc1c2ccc(Cl)cc2nc2ccc(OC)cc12', 'active'),
  ('CC[C@H]1CCC/C=C/[C@@H]2C[C@H](O)C[C@H]2[C@H](O)/C=C/C(=O)O1', 'active'),
  ('COc1ccc(C2=NN(C(=O)c3ccc(S(C)(=O)=O)cc3)C(c3ccc(OC)c(OC)c3)C2)c(OC)c1 (stereo not given)', 'inactive'),
  ('CCOC(=O)N1C/C(=C/c2ccc(OC)cc2)C(=O)/C(=C/c2ccc(OC)cc2)C1', 'active');

Challenge: Per the records of this test, what outcome belongs to "CCN(CC)CCOc1nc2cc(OC)c(OC)cc2c2c1-c1ccc(OC)cc1C2=O" ?
Response given: inactive

The measured values listed here are drawn from PubChem BioAssay (NCI).
